target: UniProt P13945; assay: Percent increase in adenylyl cyclase activation in CHO cells expressing human beta-3 adrenergic receptor; format: functional, cell-based
Sequence (P13945 whole entry, looked up): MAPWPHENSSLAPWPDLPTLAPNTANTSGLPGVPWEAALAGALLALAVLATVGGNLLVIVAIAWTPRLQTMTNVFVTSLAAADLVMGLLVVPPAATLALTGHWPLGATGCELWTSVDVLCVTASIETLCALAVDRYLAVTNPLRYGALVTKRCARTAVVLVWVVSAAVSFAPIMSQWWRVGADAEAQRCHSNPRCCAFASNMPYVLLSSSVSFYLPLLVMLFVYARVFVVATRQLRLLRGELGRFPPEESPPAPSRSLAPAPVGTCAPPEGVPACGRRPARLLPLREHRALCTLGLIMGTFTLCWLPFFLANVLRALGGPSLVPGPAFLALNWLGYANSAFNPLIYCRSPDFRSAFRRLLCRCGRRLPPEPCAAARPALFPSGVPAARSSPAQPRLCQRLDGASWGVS
METRIC: Max stimulation (%)

                           molecular_string  recorded_value
0  O=S(=O)(Nc1ccc(CCNC[C@H](O)c2cccnc2)cc1)c1ccc(-c2nc(Cc3ccc(F)cc3)cs2)cc1              57
1  O=S(=O)(Nc1ccc(CCNC[C@H](O)c2cccnc2)cc1)c1ccc(-c2nc(-c3cc4ccccc4s3)cs2)cc1              94
2  O=S(=O)(Nc1ccc(CCNC[C@H](O)c2cccnc2)cc1)c1ccc(-c2nc(-c3ccc4ccccc4c3)cs2)cc1             100
3  CCCCCCCCc1csc(-c2ccc(S(=O)(=O)Nc3ccc(CCNC[C@H](O)c4cccnc4)cc3)cc2)n1              84
4  O=S(=O)(Nc1ccc(CCNC[C@H](O)c2cccnc2)cc1)c1ccc(-c2nc(Cc3ccc4ccccc4c3)cs2)cc1              75
5  O=S(=O)(Nc1ccc(CCNC[C@H](O)c2cccnc2)cc1)c1ccc(-c2nc(-c3ccc(O)cc3)cs2)cc1              58
6  O=S(=O)(Nc1ccc(CCNC[C@H](O)c2cccnc2)cc1)c1ccc(-c2nc(-c3cnc4ccccc4c3)cs2)cc1              79
7  CC(=O)Nc1ccc(-c2csc(-c3ccc(S(=O)(=O)Nc4ccc(CCNC[C@H](O)c5cccnc5)cc4)cc3)n2)cc1              82
